Data provenance: patent US12534534

Molecular target: T1, TNFRSF1B-Fc (human, UniProt P20333 23-257)
T1 construct: bought; also called TNFRSF1B (R&D Systems, 726-R2-050); not shown: Fc part of the bought fusion
T1 sequence (looked up): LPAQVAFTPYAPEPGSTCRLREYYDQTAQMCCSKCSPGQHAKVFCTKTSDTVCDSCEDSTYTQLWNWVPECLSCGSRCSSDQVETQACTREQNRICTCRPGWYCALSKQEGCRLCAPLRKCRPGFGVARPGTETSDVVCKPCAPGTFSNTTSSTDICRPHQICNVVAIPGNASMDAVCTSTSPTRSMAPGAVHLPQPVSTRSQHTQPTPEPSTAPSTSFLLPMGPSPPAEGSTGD
Experiment: SPR, antigen immobilised on CM5 chip

| BINDER | binding result |
| --- | --- |
| G1AA/FS30-15 (antibody, human IgG1, kappa, L234A L235A, V domains shown, human IgG1 with LALA mutation in CH2; also called FS30-15 mAb) VH: EVQLLESGGGLVQPGGSLRLSCAASGFTFSGSGMSWVRQAPGKGLEWVSIIYSTNGDTDYADSVKGRFTISRDNSKNTLYLQMNSLRAEDTAVYYCARDFYDIANYYAFDYWGQGTLVTVSS VL: EIVLTQSPGTLSLSPGERATLSCRASQSVSSSYLAWYQQKPGQAPRLLIYGASSRATGIPDRFSGSGSGTDFTLTISRLEPEDFAVYYCQQAYYDPITFGQGTKVEIKR | binds |
| FS20-22-49AA/FS30-15 (bispecific antibody, human IgG1, kappa, L234A L235A, V domains shown, also called FS30-15 in mAb^2 format) VH: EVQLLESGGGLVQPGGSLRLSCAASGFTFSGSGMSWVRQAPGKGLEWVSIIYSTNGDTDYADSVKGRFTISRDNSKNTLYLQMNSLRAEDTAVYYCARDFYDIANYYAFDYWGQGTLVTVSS VL: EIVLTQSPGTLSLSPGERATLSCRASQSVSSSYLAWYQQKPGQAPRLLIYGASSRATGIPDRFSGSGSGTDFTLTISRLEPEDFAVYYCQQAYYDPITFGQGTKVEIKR | binds |
